Reported IC50 values are given for each entry in this list.
- assayedTarget: Neuropilin-1 (Homo sapiens)
- assayExplanation: NRP-1 b1b2 CendR peptide binding inhibitors, dose response, biochemical, FP and AlphaScreen panel (AID 651650)
- measurementConditions: NRP-1 b1b2 / RPARPAR peptide binding, FP or AlphaScreen; AlphaScreen, mean of runs
Active and inactive are the calls of the source.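 Rule for the calls: active = mean IC50 below 20 µM in each of the two panels, so potent in both; inactive = the rest.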
resultType: IC50

[
  {
    "smilesString": "Cc1onc(-c2ccccc2)c1C(=O)N1CCCC1",
    "assayedTarget": "Neuropilin-1 (Homo sapiens)",
    "resultType": "IC50",
    "result": "> 100 µM (inactive)"
  },
  {
    "smilesString": "C/C(=N\\NC(=O)c1cc(O)ccc1O)c1cccc(NC(=O)c2cccc(Cl)c2)c1",
    "assayedTarget": "Neuropilin-1 (Homo sapiens)",
    "resultType": "IC50",
    "result": "> 100 µM (inactive)"
  },
  {
    "smilesString": "C#CCOc1nc(C)cc(C)c1S(=O)(=O)c1ccccc1C",
    "assayedTarget": "Neuropilin-1 (Homo sapiens)",
    "resultType": "IC50",
    "result": "> 100 µM (inactive)"
  }
]

###

pIC50 for assorted molecules
- assayedTarget: Neuropilin-1 (Homo sapiens) (UniProt O14786)
- Sequence (O14786 whole entry, looked up): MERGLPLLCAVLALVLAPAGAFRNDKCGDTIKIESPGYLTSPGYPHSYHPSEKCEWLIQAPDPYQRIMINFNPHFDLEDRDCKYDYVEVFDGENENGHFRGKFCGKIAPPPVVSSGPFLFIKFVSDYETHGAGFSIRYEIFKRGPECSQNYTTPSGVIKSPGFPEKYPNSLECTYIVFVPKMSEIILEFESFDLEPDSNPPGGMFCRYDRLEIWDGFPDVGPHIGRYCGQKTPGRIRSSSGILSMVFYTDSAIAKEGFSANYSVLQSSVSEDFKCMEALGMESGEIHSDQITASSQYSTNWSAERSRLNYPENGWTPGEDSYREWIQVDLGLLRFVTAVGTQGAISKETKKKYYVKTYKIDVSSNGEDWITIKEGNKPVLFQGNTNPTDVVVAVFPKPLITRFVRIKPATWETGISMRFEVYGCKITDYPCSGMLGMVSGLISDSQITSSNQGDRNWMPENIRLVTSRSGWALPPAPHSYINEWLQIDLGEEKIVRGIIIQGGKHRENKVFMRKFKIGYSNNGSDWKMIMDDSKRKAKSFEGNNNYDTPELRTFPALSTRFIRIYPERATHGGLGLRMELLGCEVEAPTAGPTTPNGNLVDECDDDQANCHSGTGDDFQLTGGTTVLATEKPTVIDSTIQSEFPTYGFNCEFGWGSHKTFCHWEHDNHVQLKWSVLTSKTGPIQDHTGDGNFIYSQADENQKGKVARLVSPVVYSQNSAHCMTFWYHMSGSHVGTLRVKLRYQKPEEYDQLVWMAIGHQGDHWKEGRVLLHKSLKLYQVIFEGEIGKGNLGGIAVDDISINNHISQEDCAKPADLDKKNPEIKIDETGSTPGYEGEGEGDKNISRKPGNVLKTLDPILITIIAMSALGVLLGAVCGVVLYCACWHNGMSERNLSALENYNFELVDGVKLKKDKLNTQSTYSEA
- assayExplanation: NRP-1 b1b2 CendR peptide binding inhibitors, dose response, biochemical, FP and AlphaScreen panel (AID 651650)
- measurementConditions: NRP-1 b1b2 / RPARPAR peptide binding, FP or AlphaScreen; AlphaScreen, run 1; individual panel run IC50
pIC50: −log10 of the molar value.

[
  {
    "molecule": "C=C[C@]12CC[C@H](OC(C)=O)CC1=CCC1C2CC[C@@]2(C)C1CCC21OCCO1 (stereo not given in full)",
    "pIC50": "< 4.00"
  },
  {
    "molecule": "CC(C)(C)OC(=O)NCc1ccc(CNC(=O)c2nc[nH]c2C(=O)N2CCN(C(=O)OC(C)(C)C)CC2)cc1",
    "pIC50": "< 4.00"
  },
  {
    "molecule": "Cc1ccc(S(=O)(=O)N2[C@@H](c3ccc(Cl)cc3)C(C(=O)OC(C)(C)C)=CC[C@H]2c2ccc(Cl)c(Cl)c2)cc1",
    "pIC50": 4.39
  },
  {
    "molecule": "CCC1CCCCN1C(=S)Nc1ccc(OC(F)F)cc1 (stereo not given)",
    "pIC50": 4.48
  },
  {
    "molecule": "Cc1ccc(C(=O)OCC(=O)c2ccc(Cl)s2)s1",
    "pIC50": "< 4.00"
  },
  {
    "molecule": "COc1ccc(C(=O)N2CCC(C(=O)NCc3ccccn3)CC2)cc1",
    "pIC50": "< 4.00"
  },
  {
    "molecule": "COC(=O)N[C@@H]1C[C@H]2[C@@H]3CC[C@H]4C[C@@H](OC)CC[C@]4(C)[C@H]3CC[C@]12C",
    "pIC50": 4.16
  },
  {
    "molecule": "CN(C)CCOC(c1ccc(Cl)cc1)c1ccccn1 (stereo not given)",
    "pIC50": "< 4.00"
  },
  {
    "molecule": "CCC(=NCCc1ccccc1)c1c(O)n(C2CCCCC2)c(=O)[nH]c1=O",
    "pIC50": "< 4.00"
  },
  {
    "molecule": "OCCC1CCCCN1CC(O)COCc1ccc(Cl)cc1 (stereo not given)",
    "pIC50": "< 4.00"
  },
  {
    "molecule": "Cc1ccccc1-n1ncc2c1CC(C)(C)CC2NC(=O)c1ccncc1 (stereo not given)",
    "pIC50": "< 4.00"
  },
  {
    "molecule": "CC(C)(C)n1nc(-c2ccc(F)cc2)c2c(N)ncnc21",
    "pIC50": "< 4.00"
  },
  {
    "molecule": "Clc1nc(-c2ccccn2)nc2scc(-c3ccccc3)c12",
    "pIC50": "< 4.00"
  },
  {
    "molecule": "O=C(Cc1ccccc1Cl)N1CCOCC1",
    "pIC50": "< 4.00"
  },
  {
    "molecule": "O=C(COC(=O)C1CC(=O)N(Cc2ccccc2)C1)Nc1ccccc1F (stereo not given)",
    "pIC50": 4.35
  },
  {
    "molecule": "CC(=O)c1ccc(OCC(=O)Nc2nnc(C3CC3)s2)cc1",
    "pIC50": "< 4.00"
  },
  {
    "molecule": "Cc1ccc(C(=O)O)cc1NC(=O)Nc1cccc2ccccc12",
    "pIC50": "< 4.00"
  },
  {
    "molecule": "CC(=O)NC(c1cccc(F)c1)c1nc(-c2cccc(C(F)(F)F)c2)cs1 (stereo not given)",
    "pIC50": "< 4.00"
  },
  {
    "molecule": "COC(=O)C1N[C@@H]([C@@H](NC(=O)COc2ccccc2)C(=O)NCc2ccccc2)SC1(C)C (stereo not given in full)",
    "pIC50": "< 4.00"
  },
  {
    "molecule": "COc1ccc(-c2csc(NCCc3nc4cc(C(=O)NCCCO)ccc4n3Cc3ccc(C)cc3)n2)cc1",
    "pIC50": 4.56
  },
  {
    "molecule": "CC(OC(=O)c1ccco1)C(=O)Nc1nc(-c2ccccc2)cs1 (stereo not given)",
    "pIC50": "< 4.00"
  },
  {
    "molecule": "NS(=O)(=O)c1cccnc1Nc1cccc(Cl)c1Cl",
    "pIC50": "< 4.00"
  },
  {
    "molecule": "Cc1ccc2cc(CN(c3ccccc3C)S(=O)(=O)c3ccccc3)c(=O)[nH]c2c1",
    "pIC50": "< 4.00"
  },
  {
    "molecule": "CC(Oc1ccccc1)C(=O)NC1=NCCS1 (stereo not given)",
    "pIC50": "< 4.00"
  },
  {
    "molecule": "O=C(CSc1nc2ccccc2n1Cc1ccccc1Cl)N/N=C/c1ccccc1C(=O)O",
    "pIC50": 4.41
  }
]

###

- assayedTarget: UniProt:O14786
- assayExplanation: NRP-1 b1b2 CendR peptide binding inhibitors, dose response, biochemical, FP and AlphaScreen panel (AID 651650)
- measurementConditions: NRP-1 b1b2 / RPARPAR peptide binding, FP or AlphaScreen; AlphaScreen, run 1; individual panel run IC50

[
  {
    "compound": "O=C(Nc1cccc2c1CCCC2)c1cc(C2CCCCN2C(=O)CCCc2ccccc2)on1 (centres undefined)",
    "IC50": "> 100 µM"
  },
  {
    "compound": "CCOC(=O)c1ccc(N2CCN(C(=O)c3ccccc3)CC2)c(NC(=O)c2ccco2)c1",
    "IC50": "> 100 µM"
  },
  {
    "compound": "c1ccc2c(CNc3ccc(CNc4ncn[nH]4)cc3)cccc2c1",
    "IC50": "> 100 µM"
  },
  {
    "compound": "CN(C)/N=C/c1ccc(Sc2ccc([N+](=O)[O-])cc2[N+](=O)[O-])o1",
    "IC50": "85.7 µM"
  },
  {
    "compound": "O=C(/C=C/c1ccccc1)c1ccccn1",
    "IC50": "> 100 µM"
  },
  {
    "compound": "COCCNC(=O)c1cc(-c2ccccc2)nn1CC1CC(c2cccc([N+](=O)[O-])c2)=NO1 (centres undefined)",
    "IC50": "> 100 µM"
  },
  {
    "compound": "CC(=NN(Cc1ccccc1)c1ccccc1)c1ccccc1",
    "IC50": "41.3 µM"
  },
  {
    "compound": "CCC1Nc2ncnc(N3CCCCC3)c2N(Cc2ccc(C)cc2)C1=O (centres undefined)",
    "IC50": "> 100 µM"
  },
  {
    "compound": "COC(=O)c1c(NC(=O)CN(c2ccccc2)S(C)(=O)=O)sc2c1CCCC2",
    "IC50": "15.5 µM"
  },
  {
    "compound": "COc1ccc([C@H]2/C=C\\CN(C(=O)C3CC3)[C@@H](C)C(=O)N2Cc2ccc(F)cc2)cc1",
    "IC50": "> 100 µM"
  },
  {
    "compound": "Cc1c(NP(=O)(C(C)(C)C)C(C)(C)C)c(=O)n(-c2ccccc2)n1C",
    "IC50": "> 100 µM"
  },
  {
    "compound": "OCC1OC(n2cnc3c(/C=C(\\O)c4ccccc4)ncnc32)C(O)C1O (centres undefined)",
    "IC50": "> 100 µM"
  },
  {
    "compound": "COC/C=C/C1=CC2=CC(=O)C(C)(OC(=O)c3cnc4ccccc4n3)C(=O)C2=CN1Cc1ccc(OC)cc1 (centres undefined)",
    "IC50": "46.4 µM"
  },
  {
    "compound": "C=C1CCN([C@@H](CC(C)C)C(=O)NCCC(C)C)S(=O)(=O)c2ccccc21",
    "IC50": "> 100 µM"
  },
  {
    "compound": "O=S(=O)(c1ccccc1)c1nc(-c2ccc(F)cc2)oc1N1CCOCC1",
    "IC50": "> 100 µM"
  },
  {
    "compound": "Cc1cc(NC(=O)COC(=O)c2ccc(C)c(C)c2)no1",
    "IC50": "> 100 µM"
  },
  {
    "compound": "CN(Cc1cnn(C)c1)C(=O)c1cc2ccccc2oc1=O",
    "IC50": "> 100 µM"
  },
  {
    "compound": "CC1CCC(NC(=O)CSc2nncn2C)CC1 (centres undefined)",
    "IC50": "> 100 µM"
  },
  {
    "compound": "O=C(O)CCSc1nnc(COc2cccc3cccnc23)n1-c1ccccc1",
    "IC50": "> 100 µM"
  },
  {
    "compound": "COc1ccc(NC(=O)C(C)Sc2ccccc2)cc1 (centres undefined)",
    "IC50": "> 100 µM"
  },
  {
    "compound": "COc1cc2c(cc1OC)C(Nc1ccc(S(N)(=O)=O)cc1)=NC(C)(C)C2",
    "IC50": "51.8 µM"
  },
  {
    "compound": "Cc1ccc(Nc2c(-c3ccccc3O)nc3ncccn23)cc1",
    "IC50": "> 100 µM"
  },
  {
    "compound": "CC(=O)Nc1ccc(NC(=O)C2CC(=O)N=C(N)S2)cc1 (centres undefined)",
    "IC50": "> 100 µM"
  },
  {
    "compound": "CCc1cccc(NC(=O)CCc2c(C)nn(-c3ccc(N4CCOCC4)nn3)c2C)c1",
    "IC50": "40.2 µM"
  }
]
